tested on: Streptococcus pneumoniae; assay: Antibacterial activity against Streptococcus pneumoniae assessed as inhibition of bacterial growth incubated for 20 to 24 hrs by microbroth serial dilution method; assay type: functional; conditions: time 20-24 hrs, read-out: MIC100
This section presents compounds with their documented MIC values.
Give a bare numeral; the unit µg/mL is implied.

Example entries begin here.
1. C=C[C@]1(C)C[C@@H](OC(=O)CS[C@@H]2C[C@H]3CC[C@@H](C2)N3C)[C@]2(C)[C@H](C)CC[C@]3(CCC(=O)[C@H]32)[C@@H](C)[C@@H]1O    0.06
2. C=C[C@]1(C)C[C@@H](OC(=O)Cn2cc(-c3cccc(Nc4ncnc5[nH]cnc45)c3)nn2)[C@]2(C)[C@H](C)CC[C@]3(CCC(=O)[C@H]32)[C@@H](C)[C@@H]1O    0.5
3. C=C[C@]1(C)C[C@@H](OC(=O)Cn2cc(-c3cncc(C(=O)Nc4ccc(N)nc4)c3)nn2)[C@]2(C)[C@H](C)CC[C@]3(CCC(=O)[C@H]32)[C@@H](C)[C@@H]1O    1
4. C=C[C@]1(C)C[C@@H](OC(=O)Cn2cc(-c3cccc(Nc4cc(N)ncn4)c3)nn2)[C@]2(C)[C@H](C)CC[C@]3(CCC(=O)[C@H]32)[C@@H](C)[C@@H]1O    1

Now turn to the next compound.
Record summary for C=C[C@]1(C)C[C@@H](OC(=O)Cn2cc(-c3cncc(NC(=O)c4cnc(OC)cn4)c3)nn2)[C@]2(C)[C@H](C)CC[C@]3(CCC(=O)[C@H]32)[C@@H](C)[C@@H]1O : reported MIC = 1
